Cited source: ChEMBL document CHEMBL3988442

- Test system: Sialic acid-binding Ig-like lectin 9 (Homo sapiens)
- Assay remarks: Hs-Siglec9 ALPHAscreen SOP 20170721
- Parameters: scale not given: direction of the effect not stated beside the values
- Details: 10 µM
Outcome measure: Percent Effect (%)
Respond with the bare value in %.

[[record]]
compound = "Cc1cnn(CC2CCCCN2CCC(=O)Nc2cc(C)on2)c1 (stereo unspecified)"
outcome_measure = "Percent Effect"
uom = "%"
meas_value = 0.417

[[record]]
compound = "CCN(Cc1cccc(Cl)c1)Cn1nc(C)c2c(C)onc2c1=O"
outcome_measure = "Percent Effect"
uom = "%"
meas_value = 2.84

[[record]]
compound = "CN1C(=O)C(C)(C)COc2cc(NS(=O)(=O)c3ccccc3)ccc21"
outcome_measure = "Percent Effect"
uom = "%"
meas_value = 10.6


Inquiry: // lookup Percent Effect for CCc1nc(CN2CCCC(N(C)Cc3cnc(C)s3)C2)no1 (stereo unspecified)
Reply text: 3.08

Inquiry: // lookup Percent Effect for CCCNC(=O)CNc1cc(C#N)ccc1OCC
Reply text: 3.16

Inquiry: // lookup Percent Effect for CN(Cc1ccc(Cl)s1)C(=O)c1cccc(OCC(N)=O)c1
Reply text: -1.09

Inquiry: // lookup Percent Effect for c1ccc(CN2CCCC(c3nccnc3-n3ccnc3)C2)cc1 (stereo unspecified)
Reply text: -1.75

Inquiry: // lookup Percent Effect for Cn1cc(CN2CC[C@@H]3[C@@H](CCC(=O)N3CCc3c[nH]cn3)C2)cn1
Reply text: 7.16

Inquiry: // lookup Percent Effect for Cc1c(C)n(-c2ccccn2)c2nc3c(c(N)c12)CCCC3
Reply text: 7.22

Inquiry: // lookup Percent Effect for CC(C(=O)NCc1ccc(N2CCNC(=O)C2)cc1)n1cncn1 (stereo unspecified)
Reply text: 17.6

Inquiry: // lookup Percent Effect for Cc1csc2c(N3CCC(NCCCc4ccncc4)CC3)ncnc12
Reply text: 17.7

* * *

- Test system: Arginase-2, mitochondrial (Homo sapiens) (UniProt P78540)
- Sequence (whole entry): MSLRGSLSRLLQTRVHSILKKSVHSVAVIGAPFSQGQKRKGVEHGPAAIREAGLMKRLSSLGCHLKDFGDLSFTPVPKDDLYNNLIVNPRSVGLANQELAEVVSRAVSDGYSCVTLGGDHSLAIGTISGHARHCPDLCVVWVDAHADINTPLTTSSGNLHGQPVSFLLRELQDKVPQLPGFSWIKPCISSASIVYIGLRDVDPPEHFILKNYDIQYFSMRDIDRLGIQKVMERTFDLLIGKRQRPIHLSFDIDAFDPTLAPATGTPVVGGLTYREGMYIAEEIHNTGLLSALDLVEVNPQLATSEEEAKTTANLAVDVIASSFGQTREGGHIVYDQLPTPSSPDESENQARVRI
- Assay remarks: in vitro enzyme assay to detect the production of urea directly proportional to the activity of Arginase II; note: in the data most compounds retested in dose-response had high values
- Format: functional
- Parameters: scale not given: direction of the effect not stated beside the values
- Details: 33.3 µM
Outcome measure: Percent Effect (%)
Respond with the bare value in %.

[[record]]
compound = "N#Cc1ccc(C(=O)N2CCn3c(Cn4cccn4)cnc3C2)cc1"
meas_value = -57.5

[[record]]
compound = "CCCn1nc(C2CCNCC2)n(Cc2ccccc2)c1=O"
meas_value = -5.71

[[record]]
compound = "CCc1ncncc1C(=O)NCCN1CCC(C)CC1"
meas_value = -2.21

[[record]]
compound = "CCCNC(=O)N1CCN(Cc2cc(C)no2)CC1"
meas_value = -2.16

[[record]]
compound = "COC(CNC(=O)N1CCC(n2cncn2)CC1)c1ccccc1 (stereo not given)"
meas_value = 1.94

[[record]]
compound = "CCOCCCNC(=O)c1cn(CC)nc1C"
meas_value = 1.58


Inquiry: // lookup Percent Effect for Cc1noc([C@H]2CC[C@@H]3[C@@H](CCN3S(C)(=O)=O)O2)n1
Reply text: 3.75

Inquiry: // lookup Percent Effect for CCc1ncc(C(=O)N2CCCCC2Cn2cccn2)s1 (stereo not given)
Reply text: 1.66

Inquiry: // lookup Percent Effect for N#Cc1cccnc1NCc1cccnc1N1CCC(C(N)=O)CC1
Reply text: -0.744

Inquiry: // lookup Percent Effect for O=C(c1ccnnc1)N1C[C@H]2CCC[C@@]2(COCC2CCOCC2)C1
Reply text: -2.87

Inquiry: // lookup Percent Effect for Cc1cnn(CCNCc2cccnc2)c1
Reply text: 1.5

Inquiry: // lookup Percent Effect for O=C(c1ccccn1)N1CCc2nc(-c3cnccn3)nc(O)c2C1
Reply text: -0.232

Inquiry: // lookup Percent Effect for O=C(CCc1cc2n(n1)CCCN(C(=O)c1ccccn1)C2)NC1CC1
Reply text: 21.2

Inquiry: // lookup Percent Effect for CCOc1cc(C)nc(N2CCN(C(=O)c3ccnn3C)CC2)n1
Reply text: -3.51

Inquiry: // lookup Percent Effect for CC(C)n1ccnc1CN1CCCN(C(=O)COC2CCCC2)CC1
Reply text: -2.8

Inquiry: // lookup Percent Effect for COCCN(C)CC(=O)N1C[C@H]2CC[C@@H]1CN(C(=O)c1ccncc1)C2
Reply text: 1.56

Inquiry: // lookup Percent Effect for Cc1nn(C)c(N2CCOCC2)c1CNCc1nccs1
Reply text: 4.21

Inquiry: // lookup Percent Effect for Cc1cc(O)c(OCC(=O)/N=c2\[nH]cc(C)s2)cn1
Reply text: -5.92

Inquiry: // lookup Percent Effect for COCCn1ccc(=O)c(OCC(=O)Nc2ccccc2)c1C
Reply text: 1.23

Inquiry: // lookup Percent Effect for CC(C)c1nnc2ccc(N3CCC(C(N)=O)CC3)nn12
Reply text: -8.63

Inquiry: // lookup Percent Effect for CS(=O)(=O)NCC1CCCN(Cc2ccc(F)c3cccnc23)C1 (stereo not given)
Reply text: -4.14

Inquiry: // lookup Percent Effect for CC[C@@H]1N(CC2CC2)CCC[C@]12CCC(=O)N2CCOC
Reply text: -53.9

Inquiry: // lookup Percent Effect for CC(=O)Nc1nc(C2CCN(C(C)=O)CC2)cs1
Reply text: 0.699

Inquiry: // lookup Percent Effect for COc1ccccc1S(=O)(=O)Nc1ccc2c(C(=O)O)c[nH]c2c1
Reply text: -4.98

Inquiry: // lookup Percent Effect for O=C(CN1CCCC1Cn1cncn1)NCCc1c(F)cccc1F (stereo not given)
Reply text: 0.719

* * *

Quick reference: Percent Effect of the listed items.
- Test system: AMP-activated protein kinase, AMPK (Homo sapiens) (UniProt P54646+O43741+P54619+Q9UGJ0+Q9Y478+Q13131+Q9UGI9)
- Assay remarks: AMP-dependent Kinase enzyme assay. An in vitro enzyme assay that detects ADP turnover that is directly proportional to AMPK activity. This uses naive AMPK that is activated during the assay with MK-8722
- Format: functional
- Design: scale not given: direction of the effect not stated beside the values
- Details: 30 µM
Respond with the bare value in %.

# example entries with known answers
[[record]]
compound = "CC1CCN(Cc2cnc(S(=O)(=O)CC3CC3)n2CC2CCCO2)CC1 (centres undefined)"
meas_value = 9.77

[[record]]
compound = "Cc1c(I)cccc1C(=O)NCC1(CO)CC1"
meas_value = -3.32

[[record]]
compound = "Cc1ccc(C(=O)NC2CCN(Cc3noc(CC(C)C)n3)CC2)s1"
meas_value = 3.54


Inquiry: // lookup Percent Effect for O=C(c1n[nH]c2ccccc12)N1CCCC1c1noc(C2CC2)n1 (centres undefined)
Reply text: -0.141

Inquiry: // lookup Percent Effect for Cc1ccc(=O)n(CC2(O)CCN(Cc3cnc(C)nc3)CC2)n1
Reply text: 4.75

Inquiry: // lookup Percent Effect for O=C(NC1CCS(=O)(=O)C1)c1sccc1-c1ccc(F)cc1 (centres undefined)
Reply text: 2.1

Inquiry: // lookup Percent Effect for Cc1nc(C)n(C2CCCN(C(=O)c3ccc(NC4CC4)nc3)C2)n1 (centres undefined)
Reply text: 2.71

* * *

- Tested on: Trypanosoma cruzi
- Assay remarks: Trypanosoma cruzi phosphomannomutase and mannose-1-phosphate guanylyltransferase assay
- Type: functional
- Set-up: scale not given: direction of the effect not stated beside the values
- Details: 10 µM
Outcome measure: Percent Effect (%)
Respond with the bare value in %.

# example entries with known answers
[[record]]
molecule = "CN(C)C(=O)NC1COC2(CCN(Cc3ccccc3)CC2)C1 (stereo unspecified)"
meas_value = -3.94

[[record]]
molecule = "Cc1ccccc1Oc1ncccc1CNS(C)(=O)=O"
meas_value = 8.16

[[record]]
molecule = "CC(C)c1noc(C(C)N2CCN(CCN3CCCC3=O)CC2)n1 (stereo unspecified)"
meas_value = -2.17

[[record]]
molecule = "COc1ccccc1C(=O)N1Cc2cc(C)ccc2OCC1CN(C)C (stereo unspecified)"
meas_value = -7.91

[[record]]
molecule = "COCC(NC(=O)c1ccc[nH]1)c1cccc(C(F)(F)F)c1 (stereo unspecified)"
meas_value = 9.01


--- query ---
Inquiry: Identify the measured Percent Effect of O=C(CN1CCCC1Cn1cncn1)Nc1cccnc1 (stereo unspecified) for Trypanosoma cruzi.
Reply text: -1.26

* * *

Quick reference: Percent Effect of the listed items.
- Test system: Proteasome subunit beta (Trypanosoma cruzi)
- Sequence (whole entry): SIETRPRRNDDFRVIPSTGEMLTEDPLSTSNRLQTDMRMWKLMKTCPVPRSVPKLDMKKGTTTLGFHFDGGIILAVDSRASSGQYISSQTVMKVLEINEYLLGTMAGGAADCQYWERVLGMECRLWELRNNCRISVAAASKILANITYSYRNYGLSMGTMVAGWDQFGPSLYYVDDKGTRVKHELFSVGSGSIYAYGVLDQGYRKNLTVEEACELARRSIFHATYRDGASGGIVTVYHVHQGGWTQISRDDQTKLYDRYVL
- Assay remarks: Trypanosoma cruzi proteasome chymotrypsin-like activity (TcProtChymo) assay. Note: in the data most compounds retested in dose-response had high values.
- Assay type: functional
- Parameters: scale not given: direction of the effect not stated beside the values
- Details: 9.37 µM
Respond with the bare value in %.

# example entries with known answers
[[record]]
compound = "Cc1ccc(Cl)cc1C(=O)N1CCC2(CC1)c1ccccc1[C@@H](N)[C@@H]2O"
test_system = "Proteasome subunit beta (Trypanosoma cruzi)"
meas_value = 19

[[record]]
compound = "Cc1nc[nH]c1CN(C)CC1CCCN(CCc2ccc(Cl)cc2)C1 (configuration not stated)"
test_system = "Proteasome subunit beta (Trypanosoma cruzi)"
meas_value = 5.32

[[record]]
compound = "CCN1CCN(C(=O)CCc2c(C)noc2Cl)CC1"
test_system = "Proteasome subunit beta (Trypanosoma cruzi)"
meas_value = 5.16

[[record]]
compound = "CC(N(C)Cc1nc2c(cnn2C)c(=O)[nH]1)C(C)(C)C (configuration not stated)"
test_system = "Proteasome subunit beta (Trypanosoma cruzi)"
meas_value = 7.72


Inquiry: // lookup Percent Effect for Cc1cc(C)n(CC2CCCN2C(=O)c2c[nH]c3ncccc23)n1 (configuration not stated)
Reply text: -3.05

Inquiry: // lookup Percent Effect for CN1C(=O)C(C)(C)COc2cc(NS(=O)(=O)c3ccccc3)ccc21
Reply text: 14.2

Inquiry: // lookup Percent Effect for CC(C)c1nc(CCNC(=O)NCc2ccnc(N(C)C)c2)cs1
Reply text: 9.43

Inquiry: // lookup Percent Effect for O=C1NC(c2ccccc2)=N[C@@]12CC[C@@H]1CN(Cc3ccccc3)C[C@@H]12
Reply text: 7.18

Inquiry: // lookup Percent Effect for Cc1ccc(CNC(=O)CCSCc2csc(C)n2)cn1
Reply text: 0.0819

Inquiry: // lookup Percent Effect for CCc1c(C(=O)N2CCN(CC(N)=O)CC2)cnn1C(C)(C)C
Reply text: 11.9

Inquiry: // lookup Percent Effect for Cc1ccccc1CNc1nc(O)cc(C2CC(=O)N(C)C2)n1 (configuration not stated)
Reply text: 13.1

Inquiry: // lookup Percent Effect for CC(C)Nc1ncnc2c1CCN(C(=O)Cc1ccccn1)CC2
Reply text: 10.3

Inquiry: // lookup Percent Effect for C=C(Cl)CN1CCC(C(=O)c2cc(F)ccc2F)CC1
Reply text: -1.67

Inquiry: // lookup Percent Effect for CSc1ncccc1C(=O)N1C[C@H]2CC[C@@H]1CN(c1cnccn1)C2
Reply text: 10.5

Inquiry: // lookup Percent Effect for CN(Cc1ccccc1)C1(C(=O)O)Cc2ccccc2C1
Reply text: 12.9

Inquiry: // lookup Percent Effect for CN(CCc1ccccc1)Cc1cc(C(=O)N2CCN(C)C(=O)C2)no1
Reply text: 19.3

Inquiry: // lookup Percent Effect for Cn1ncc2c(=O)[nH]c(CN3CCCC3Cc3ccccc3)nc21 (configuration not stated)
Reply text: 2.28

Inquiry: // lookup Percent Effect for O=C(c1ccccc1-n1cccn1)N1CCCN(c2cccnn2)CC1
Reply text: 9.46

Inquiry: // lookup Percent Effect for CNC(=O)CSc1nc2c(cnn2Cc2ccc(F)cc2)c(=O)[nH]1
Reply text: 16.5
